The origin of these recorded values is patent US8859580B2.

Reported IC50 by item:
MEASURED ON: 11β-HSD1 (Homo sapiens, UniProt P28845)
Construct: detecting cortisol generated from cortisterone by human liver microsomes; from tissue; host or cells: human liver microsomes
Sequence (P28845 whole entry): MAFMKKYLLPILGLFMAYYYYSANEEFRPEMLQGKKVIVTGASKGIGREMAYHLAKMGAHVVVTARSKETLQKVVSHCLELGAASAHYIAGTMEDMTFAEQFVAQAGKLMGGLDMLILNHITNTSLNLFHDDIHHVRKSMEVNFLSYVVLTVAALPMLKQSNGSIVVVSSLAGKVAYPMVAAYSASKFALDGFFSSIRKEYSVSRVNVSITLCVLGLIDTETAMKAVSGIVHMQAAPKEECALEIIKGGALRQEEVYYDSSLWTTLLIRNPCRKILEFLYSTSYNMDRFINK
MEASUREMENT DESCRIPTION: In vitro inhibition of 11β-HSD1, HTRF detection of cortisol generated from cortisone by human liver microsomes
Format: biochemical
MEASUREMENT CONDITIONS: 11β-HSD IC50 (nM), 1 hour at 37° C., pH 6.0, NADPH 200 μM, cortisone 80 nM, inhibition relative to carbenoxolone signal
Express it in nM; write the number only.

Cc1cc(C(=O)N2CC[C@@]3(C)c4cccc(O)c4C[C@@H]2C3(C)C)nn1C    658
C[C@@H]1[C@H]2Cc3ccc(C(=O)O)cc3[C@]1(C)CCN2C(=O)c1ccc2nc[nH]c2c1    426
CC12CCN(C(=O)c3ccc4nc[nH]c4c3)C(Cc3cc(NS(C)(=O)=O)ccc31)C2(C)C (stereo not shown)    147
Cn1nnc2cc3c(cc21)C[C@H]1N(C(=O)c2ccc4nc[nH]c4c2)CC[C@]3(C)C1(C)C    33
CC1(C)[C@H]2Cc3c(O)cccc3[C@]1(C)CCN2C(=O)c1ccc2c(c1)NC(=O)C2    3490

Next up:
Problem: I have this compound here, "COc1ccc2c(c1)[C@]1(C)CCN(C(=O)c3occc3C)[C@H](C2)[C@@H]1C" , and I need its recorded IC50.
Result: 1600
